This section presents binders with their documented koff values.
Target: T1, recombinant human 4R0N tau (human, UniProt P10636 2-758)
T1 construct: also called recombinant 4R0N human tau; P10636-6
T1 sequence (P10636 other isoform, or with tags, fused parts or gaps limits assumed): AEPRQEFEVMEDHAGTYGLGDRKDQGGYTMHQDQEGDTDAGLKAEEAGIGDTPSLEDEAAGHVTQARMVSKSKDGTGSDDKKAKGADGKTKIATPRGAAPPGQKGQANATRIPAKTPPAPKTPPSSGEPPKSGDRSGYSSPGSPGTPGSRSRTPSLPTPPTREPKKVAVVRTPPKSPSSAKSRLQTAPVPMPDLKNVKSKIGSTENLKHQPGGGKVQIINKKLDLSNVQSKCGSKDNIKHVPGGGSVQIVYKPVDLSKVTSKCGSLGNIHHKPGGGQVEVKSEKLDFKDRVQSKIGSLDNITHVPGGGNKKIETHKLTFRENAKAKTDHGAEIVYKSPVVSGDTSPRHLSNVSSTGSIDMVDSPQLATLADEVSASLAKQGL
Test: SPR Biacore; antibody captured by anti-mouse antibody; tau as analyte; global 1:1 fit
reported_property: koff (s⁻¹)

• mouse 10C12 antibody (antibody, mouse IgG2a, V domains shown, also called m10C12) VH: EVQLQQSGAELVRPGASVKLSCTASGFNIKDDYMNWVKQRPERGLEWIGWIDPENGDTEYASKFQGKATMTADTSSNTAYLQFSSLTSEDTAVYYCTTSNGWGQGTLVTVST VL: DIVMTQAAFSNPVTLGTSASISCRSSKSLLHSNGITYLYWYLQKPGQSPQLLIYQMSNLASGVPDRFSSSGSGTDFTLRISRVEAEDVGVYYCAQNLELPLTFGAGTKLELK = 0.00245
• mouse 2D11 antibody (antibody, mouse IgG2a, V domains shown) VH: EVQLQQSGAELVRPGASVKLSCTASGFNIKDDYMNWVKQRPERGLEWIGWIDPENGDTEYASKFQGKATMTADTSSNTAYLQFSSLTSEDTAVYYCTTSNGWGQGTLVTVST VL: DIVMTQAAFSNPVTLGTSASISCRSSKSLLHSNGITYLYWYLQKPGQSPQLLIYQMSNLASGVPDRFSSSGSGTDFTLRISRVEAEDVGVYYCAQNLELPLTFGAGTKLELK = 0.00221
• mouse 14H3 antibody (antibody, mouse IgG2a, V domains shown, also called m14H3) VH: QVTLKESGPGILQPSQTLSLTCSFSGFSLSTYGMGVGWIRQPSGKGLEWLANIWWDDIKYYNAALKSRLTISKDTSKNQVFLKIASVDTADTATYYCARNVDYWGQGTTLTVSS VL: DVVMTQTPLSLPVSLGDQASISCRSSQSLVHSNGNTFLHWYLQKPGQSPKLLIYKVSNRFSGVPDRFSGSGSGTDFTLKISRVEAEDLGVYFCSQSTLVPWTFGGGTKLEIK = 0.00153
• mouse 17C12 antibody (antibody, mouse IgG2a, V domains shown, also called m17C12) VH: KIQLQQSGAELVRPGASVKLSCTASAFNIKDDYMNWVKQRPERGLEWIGWIDPENGDTKYASKFQGKATMTADTSSNTAYLQLSSLTSEDTAVYYCTTSNGWGQGTLVTVSA VL: DVVMTQTPLTLSVTIGQPASISCTSSQSLLHSNRKTYLHWLLQRPGQSPKLLIYLVSKLESGVPDRFSGSGSGTDFTLKISRVEAEDLGVYYCLQTTHFPRTFGGGTKLEIK = 0.00194
• mouse 12C4 antibody (antibody, mouse IgG2a, V domains shown, also called m12C4) VH: EVQLQQSGAELVRPGASVKLSCTASGFNIKDDYMNWVRQRPERGLEWIGWIDPENGDTAYASKFQGKATMTADTSSNTAYLQFSSLTSEDSAVYYCTTSNGWGQGTLVTVSA VL: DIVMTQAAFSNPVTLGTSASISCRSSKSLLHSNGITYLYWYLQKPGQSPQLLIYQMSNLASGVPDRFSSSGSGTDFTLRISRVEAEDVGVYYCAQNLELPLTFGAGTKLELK = 0.00206
• mouse 9F5 antibody (antibody, mouse IgG1, V domains shown, also called m9F5; murine 9F5) VH: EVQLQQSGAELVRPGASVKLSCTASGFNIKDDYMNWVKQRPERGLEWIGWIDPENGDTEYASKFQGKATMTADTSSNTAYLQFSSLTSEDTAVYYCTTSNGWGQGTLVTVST VL: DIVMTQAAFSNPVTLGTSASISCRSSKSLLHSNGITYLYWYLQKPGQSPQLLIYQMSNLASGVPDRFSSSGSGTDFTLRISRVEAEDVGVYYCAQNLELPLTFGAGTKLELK = 0.00224
